MEASUREMENT TARGET: D189E mutant hMC4R, N-terminal FLAG-tagged (human, UniProt P32245 1-332, D189E)
Sequence (P32245 whole entry D189E): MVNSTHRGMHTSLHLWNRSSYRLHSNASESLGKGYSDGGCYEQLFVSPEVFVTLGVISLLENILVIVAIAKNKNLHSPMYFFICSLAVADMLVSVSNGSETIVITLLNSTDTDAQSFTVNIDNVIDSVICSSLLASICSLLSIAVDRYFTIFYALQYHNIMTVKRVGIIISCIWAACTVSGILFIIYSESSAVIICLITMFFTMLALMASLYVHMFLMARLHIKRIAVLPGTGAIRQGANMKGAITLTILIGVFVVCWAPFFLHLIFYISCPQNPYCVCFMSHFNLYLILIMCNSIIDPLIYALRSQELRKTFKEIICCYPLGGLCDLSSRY
MEASUREMENT DESCRIPTION: radioligand binding
MEASUREMENT LABEL: IC50 (nM)
Please state the figure in nM; there is no need to write the unit.

Request the reported IC50 associated with RCVRLHESCLGQQVPCCDPCATCYCRFFNAFCYCRKLGTAMNPCSRT (domain or fragment, UniProt O00253 86-132, looked up) [human agouti-related protein hAGRP(86–132)] 6
